B1: scFv; the commonest letter at each place (parent)
chain 1: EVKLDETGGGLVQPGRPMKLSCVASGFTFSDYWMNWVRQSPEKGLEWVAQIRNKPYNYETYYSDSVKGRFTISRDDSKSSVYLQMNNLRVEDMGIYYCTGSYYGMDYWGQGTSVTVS
chain 2: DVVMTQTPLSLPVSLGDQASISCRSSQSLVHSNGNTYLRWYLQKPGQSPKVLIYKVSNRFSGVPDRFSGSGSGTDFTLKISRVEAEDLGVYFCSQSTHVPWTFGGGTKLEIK

Variants of: B1
Test: Kd (Tite-Seq)
Conditions: with fluorescein; format: scFv 4-4-20, heavy + light
pKd: −log10 of the molar value.
observed-property: pKd

Record excerpt, results attached:
variant-identifier | pKd
chain 1 D106L W108I | ≤ 5.00
chain 1 Y103W | 6.64
chain 1 S101Y Y102N D106Y | ≤ 5.00

pKd for chain 1 G104E D106A is ≤ 5.00

Field pKd (entry chain 1 W33E N35K ) reads ≤ 5.00

So for chain 1 F29D S30A , the logged pKd turned out to be ≤ 5.00

get_value(item= chain 1 Y107G G109V , readout=pKd) returns ≤ 5.00

Briefly, pKd measured for chain 1 F29I M34T : ≤ 5.00

In plain terms, chain 1 W108D G109I has a documented pKd of ≤ 5.00

Short answer for chain 1 M105Y : pKd was 7.89

The recorded pKd for chain 1 M34W N35C is ≤ 5.00

Consider chain 1 F29H . Its measured pKd is 5.43

For chain 1 Y32C M34P the variant record lists pKd as ≤ 5.00

In plain terms, chain 1 G100Q S101Q has a documented pKd of ≤ 5.00

Kindly note the recorded pKd for chain 1 G100V Y103R G104L , which is ≤ 5.00

Value of measured pKd for the entry chain 1 T28K F29Y : 9.30
